- target: Atrial natriuretic peptide receptor 1 (Homo sapiens) (UniProt P16066)
- Sequence (P16066 whole entry, looked up): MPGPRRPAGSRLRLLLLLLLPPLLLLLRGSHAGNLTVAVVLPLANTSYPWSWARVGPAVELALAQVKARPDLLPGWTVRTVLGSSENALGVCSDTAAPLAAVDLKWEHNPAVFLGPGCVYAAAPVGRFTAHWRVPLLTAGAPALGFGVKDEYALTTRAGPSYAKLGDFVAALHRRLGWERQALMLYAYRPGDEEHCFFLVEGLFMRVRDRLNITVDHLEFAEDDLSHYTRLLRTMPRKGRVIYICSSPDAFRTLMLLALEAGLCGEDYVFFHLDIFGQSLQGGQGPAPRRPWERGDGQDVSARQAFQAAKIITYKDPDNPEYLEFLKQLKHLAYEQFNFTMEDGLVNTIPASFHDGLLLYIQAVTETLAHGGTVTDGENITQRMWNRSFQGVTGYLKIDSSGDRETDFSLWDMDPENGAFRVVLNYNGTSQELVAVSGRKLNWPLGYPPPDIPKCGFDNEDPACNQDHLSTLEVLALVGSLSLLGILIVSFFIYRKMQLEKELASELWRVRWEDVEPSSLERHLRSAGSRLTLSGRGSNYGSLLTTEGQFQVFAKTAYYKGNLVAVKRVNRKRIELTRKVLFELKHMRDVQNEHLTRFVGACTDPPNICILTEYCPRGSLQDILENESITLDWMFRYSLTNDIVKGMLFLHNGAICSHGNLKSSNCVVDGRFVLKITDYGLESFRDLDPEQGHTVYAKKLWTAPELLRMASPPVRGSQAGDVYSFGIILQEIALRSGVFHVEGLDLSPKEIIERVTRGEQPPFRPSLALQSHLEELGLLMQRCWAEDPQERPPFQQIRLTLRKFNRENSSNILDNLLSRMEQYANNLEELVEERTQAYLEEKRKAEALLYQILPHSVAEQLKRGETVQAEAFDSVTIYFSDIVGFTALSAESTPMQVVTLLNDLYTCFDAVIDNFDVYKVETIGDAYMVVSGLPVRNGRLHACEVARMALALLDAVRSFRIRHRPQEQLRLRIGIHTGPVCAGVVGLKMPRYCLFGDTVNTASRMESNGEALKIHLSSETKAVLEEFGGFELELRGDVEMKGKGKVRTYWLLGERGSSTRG
- assayProtocol: Natriuretic polypeptide receptor (hNpr1) antagonism - Pilot CMLD screen (AID 1347052);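 further: HEK293 cells with hNpr1 stimulated by hNppA peptide at 0.1 nM; cGMP level read as GloSensor luciferase luminescence after agonist stimulation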
- appliedConditions: HEK293 hNpr1 GloSensor cGMP luminescence, ANP-stimulated; series mostly up to 9.22 µM
Results filed as inconclusive are left out. The source made the active and inactive calls. The call rests on the fitted dose curve.
// classify into active, inactive

Worked examples follow.
Lab log entry: CCCCCCCC=CC1=CC2(C)CC1(C)C(CCCCCCC)CC2=O (stereo unspecified) — outcome as called in the assay?
inactive

What about COC[C@H]1O[C@H](c2ccccc2)C=C[C@H]1OCC=C(C)C ?
inactive

Next: CC(=O)OC[C@H]1O[C@H](C#CC2=CCCCC2)C=C[C@H]1OC(C)=O
inactive

Also C=CCOC(=O)N[C@H](c1ccccc1)[C@H](C)C=CCC(=O)OC , if possible.
inactive

Next record, please: COc1ccc([C@]23Cc4cc(OC)c(OC)cc4[C@H](O2)c2c(cc(C)oc2=O)O3)cc1
inactive

Another compound to check: CCOC(=O)CCN1C(=O)[C@@H]2[C@H]3[C@H](O)[C@H](O)CC(=NNC(=O)OCc4ccc(OC)cc4)[C@H]3CC[C@H]2C1=O
inactive

Queued: C=CCOC(=O)N[C@H](C(C(=O)OC)=C(C)NCc1ccccc1)c1ccc2c(c1)OCO2
inactive

Same read-out for C[C@@H](ON=C1[C@H]2CCn3c(=O)n(-c4ccccc4)c(=O)n3[C@@H]2[C@H](O)[C@@H]2O[C@H]12)c1cn([C@H](CO)Cc2ccccc2)nn1 ?
inactive

New cases:
// param item: COc1cc(C(NC(=O)C(F)(F)F)c2cc3ccccc3o2)cc(OC)c1OC (stereo unspecified) ; yields the recorded call
inactive

Query C[C@]12C[C@@](C)(C=C1C=Cc1ccccc1)C(=O)C[C@H]2c1ccccc1 next
inactive

What do we get for C=C(CCN1C=C(C(=O)OCC)C(c2ccccc2)NC1=O)c1ccccc1 (stereo unspecified) ?
inactive

// same read-out, input: CCOC(=O)CNC(=O)O[C@H]1C(=O)c2ccc(OC)cc2O[C@@H]1c1ccc2c(c1)OCO2
inactive

How about this compound: COCCN1C(=O)C2=C(C1=O)C1N(C)c3ccccc3[C@@]13C[C@@H](CO)N(C(C)=O)C3=N2 (stereo partly specified)
inactive

Let us now turn to C=CCC12OC3(OC)CC1[C@H](C)[C@@H](c1ccccc1)C2[C@]3(O)CC=C (stereo partly specified)
inactive

Another: COC(=O)C1=C(C)N(CC2CC2)C(=O)NC1CCc1ccccc1 (stereo unspecified)
inactive

Would you mind doing COC(=O)C(c1ccc(OC)c(OC)c1)C1c2ccccc2C=C(C)N1C(=O)OC (stereo unspecified) as well?
inactive

And the next one, COC(=O)C1=C(C)N(Cc2ccccc2)C(=NCc2ccc3c(c2)OCO3)NC1CCc1ccccc1 (stereo unspecified) ?
inactive

And then COC(=O)C1=C(C(=O)OC)[C@@H]2N(C)c3ccccc3[C@@]23C[C@@H](C(=O)OC)N(C(=O)c2ccco2)C3=N1 , what is it?
inactive

Field entry: COC(=O)CC=C[C@@H](C)[C@H](NC(=O)OCC(Cl)(Cl)Cl)c1ccc2ccccc2c1
inactive

CC=Cc1cc2ccccc2c2c(C(=O)OC)c(C(=O)OC)c(C(=O)OC(C)(C)C)n12 , same question.
inactive

Now give it for CCN1C(=NCCc2cccnc2)N[C@H](CCc2ccccc2)[C@H](C(=O)OC)[C@H]1C too.
inactive

Try Cc1ccc(O[C@@H]2[C@H](O)CO[C@H]2C=CC#Cc2ccc(C(C)(C)C)cc2)cc1 next.
inactive

And for O=C1CCC=C1C(O)c1ccc2c(c1)OCO2 (stereo unspecified) ?
inactive

Further, for COC(=O)C[C@H]1c2ccccc2[C@@H]2C(=C[C@@H](C)[C@H]3C(=O)N(O)C(=O)[C@H]32)N1C(=O)OC ?
inactive

Origin of the recorded values: PubChem BioAssay (NCATS)
